Values were extracted from the supplement of paper PMC10567573.

Readings of protein stability index for the listed variants
B1: PPEF2 (parent)
chain: AFKAAALIQRWYRRYVARLEMRRR

# Variants of: B1
# assay_procedure: protein stability index of a GFP-peptide fusion (GPS, HEK-293T) (PSI 1-6); higher = more stable;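 also: lentivirally expressed fusions sorted by FACS into six bins by GFP to DsRed ratio, PSI derived from sequencing read proportions per bin multiplied by bin number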
# recorded_conditions: c terminus: a fixed tail appended
measured_quantity: protein stability index

> print(dat)
    variant  test.value
 1     E20V        2.32
 2      A5P        2.08
 3     Y15F        3.39
 4      Q9F        2.85
 5     R13H        2.16
 6     R22F        2.32
 7     Y12M        2.95
 8     W11H        2.28
 9     R22T        3.82
10     L19C        2.48
11     A17Q        3.62
12     V16T        3.53
13     W11Y        3.91
14     R24V        2.34
15      A1T         3.4
16     R23T        2.25
17      Q9M        2.37
18      F2Y        3.46
19     R18I        2.06
20     R24S        2.63
21     R14K           3
22     R14P        1.59
23     M21Y        3.42
24      A1C        3.54
25      A4R        3.46
26     R22D        2.24
27     R23G        2.61
28     R18T        2.41
29      I8N        2.98
30      L7N        2.64
31      A6L         2.5
32     A17L        3.75
33     E20D        3.02
34     R18N        2.71
35     W11S        4.12
36     R10L        1.71
37     E20F        3.06
38     R22W        2.52
39      L7M        2.25
40     M21C        3.34
41      K3S        4.09
42     Y15P        1.89
43     V16F        3.25
44     A17K        3.57
45     E20G        3.31
46     R23I        2.13
